tested on: PPARg DBDmut IVT, anti-PPARg (DBD mutation: PPARg1 K132A/R137A, NR concentration 270 nM); assay: PBM binding z-score (relative to random genomic background probes); higher = stronger binding; sequences stand for … in GC…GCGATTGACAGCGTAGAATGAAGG
quantity measured: PBM binding z-score
Answer with a bare number; do not write a unit.

query: // returns reported PBM binding z-score for input `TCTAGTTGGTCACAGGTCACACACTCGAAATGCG`
result: 1.96

query: // returns reported PBM binding z-score for input `CCGACTGGGGCTAGGTTACCATAACGCACAGCCA`
result: -1.97

query: // returns reported PBM binding z-score for input `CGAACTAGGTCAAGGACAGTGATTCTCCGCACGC`
result: 2.07

query: // returns reported PBM binding z-score for input `AGTCAAAGATCATCTAGGTAACGTAAGATATGCT`
result: 0.62

query: // returns reported PBM binding z-score for input `CCGACTCGGGCAGAAAGGTTACCATACCATCCGG`
result: -1.19

query: // returns reported PBM binding z-score for input `AGTCAAAGTTCACTATGTAACGTAAGATTCAGCT`
result: 0.578

query: // returns reported PBM binding z-score for input `GATACAGGGTCAGCTAGAGGCCATAGTATGGAAA`
result: -0.0794

query: // returns reported PBM binding z-score for input `CAAACTAGGTCCAAGGTCAAAGTCGAGCCAACCA`
result: 0.226

query: // returns reported PBM binding z-score for input `CCTATTAGCTGACCATAAGGGCAACCGAAGCTCG`
result: 0.266

query: // returns reported PBM binding z-score for input `TGAACGAGGTTATAAGATCAGGGAACGTTGCAAA`
result: 0.611

----------
The reader will find reported PBM binding z-score values listed item by item below.
test system: RARa:RXR (NR concentration 270 nM, RXRa partner concentration 90 nM); test: PBM binding z-score (relative to random genomic background probes); higher = stronger binding; sequences stand for … in GC…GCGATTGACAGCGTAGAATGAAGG
Answer with a bare number; do not write a unit.

Solved entries:
monomer sequence: CAAACTAGGTCACGAAAGGTCAAAGGCGAATGAC
quantity measured: PBM binding z-score
data value: 8.15
--
monomer sequence: TCAGACAGGTGAAGGTCACTCAGGTACGCAGTCG
quantity measured: PBM binding z-score
data value: 3.78
--
monomer sequence: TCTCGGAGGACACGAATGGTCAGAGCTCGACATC
quantity measured: PBM binding z-score
data value: -0.159
--
monomer sequence: CGAACTAGGTCAAGGACAGTGACTCTCCGCACGC
quantity measured: PBM binding z-score
data value: 2.54

query: // returns reported PBM binding z-score for input `GTACCAAGGTGGATAGGTCGTTGATGAGTAGGCG`
result: -0.144

query: // returns reported PBM binding z-score for input `CGTCAAAGTTCAACGTAACGTAACAGAAAGCAGC`
result: 3.07

query: // returns reported PBM binding z-score for input `AGTCTAAGTTCATCTAGGTAACGTAAGATATGCT`
result: 2.24

query: // returns reported PBM binding z-score for input `CCGACTGGGGAAGAAAGGTTACCATACCATCCGG`
result: 1.3

query: // returns reported PBM binding z-score for input `CCGAGTAGGGTATGGGGCATTCAGGCAACGGTGA`
result: -0.154

query: // returns reported PBM binding z-score for input `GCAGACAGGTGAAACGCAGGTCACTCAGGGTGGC`
result: 3.45

query: // returns reported PBM binding z-score for input `ATAATGAGGTTATACGTAGATCAGGGAAGAAAGT`
result: 2.12

query: // returns reported PBM binding z-score for input `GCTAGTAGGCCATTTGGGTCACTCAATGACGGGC`
result: 0.598
